Molecular target: Son of sevenless homolog 1 (Homo sapiens)
Assay: Activation of SOS1 in human HeLa cells assessed as effect on ERK1/2 phosphorylation at T202/Y204 residue by measuring […] at 25 uM after 30 mins by Western blot analysis relative to control
Assay type: cell-based
fold change (FC) for assorted compounds
Lab note: jot the number down without any unit.

Field: example entries. Status: answers known.
C[C@@H](Nc1nc(Nc2ccc(F)c(Cl)c2)nc2c(CN)cccc12)C1CC1    2.52
C[C@@H](Nc1nc(Nc2ccc(F)c(Cl)c2)nc2ccccc12)C1CC1    1.61
C[C@@H](Nc1nc(Nc2ccc(F)c(Cl)c2)nc2c(C3=CCNCC3)cccc12)C1CC1    1.98

API: the following record is the query input.
For this compound ( "C[C@@H](Nc1nc(Nc2ccc(F)c(Cl)c2)nc2c(CCN)cccc12)C1CC1" ), measured fold change (FC) is 1.87
